# tgt: T1, human EphB4-His (human) (UniProt P54760)
# T1 sequence (looked up): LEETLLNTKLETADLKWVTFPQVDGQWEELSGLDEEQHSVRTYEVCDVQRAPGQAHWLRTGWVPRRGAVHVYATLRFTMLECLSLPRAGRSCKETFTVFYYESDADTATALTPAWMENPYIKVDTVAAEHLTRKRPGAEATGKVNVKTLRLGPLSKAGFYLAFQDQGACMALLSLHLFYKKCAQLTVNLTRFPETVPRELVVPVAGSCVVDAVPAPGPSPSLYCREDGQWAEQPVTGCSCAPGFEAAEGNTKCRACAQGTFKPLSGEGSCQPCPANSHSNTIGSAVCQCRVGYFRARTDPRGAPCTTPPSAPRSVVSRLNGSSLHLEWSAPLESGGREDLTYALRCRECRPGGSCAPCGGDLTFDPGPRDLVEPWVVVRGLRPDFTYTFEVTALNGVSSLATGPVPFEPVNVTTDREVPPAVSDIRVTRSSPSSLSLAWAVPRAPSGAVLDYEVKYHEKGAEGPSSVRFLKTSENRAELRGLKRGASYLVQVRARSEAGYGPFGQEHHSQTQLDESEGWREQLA
# run.description: SPR, BIAcore-3000, antibody coupled to CM5 chip, EphB4-His injected, 25 C
measured.parameter: kon (M⁻¹ s⁻¹)
Just the number in M⁻¹ s⁻¹, nothing appended.

[[record]]
binder = "anti-EphB4 antibody clone YW30.35 (antibody, V domains shown) VH: EVQLVESGGGLVQPGGSLRLSCAASGFTISGYYIHWVRQAPGKGLEWVGGIYPYSGSTDYADSVKGRFTISADTSKNTAYLQMNSLRAEDTAVYYCARGSGLRLGGLDYAMDYWGQGTLVTVSS VL: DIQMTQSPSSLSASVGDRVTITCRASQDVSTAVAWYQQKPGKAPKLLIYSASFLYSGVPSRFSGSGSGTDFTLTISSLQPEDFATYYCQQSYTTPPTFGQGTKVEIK"
measured_parameter = "kon"
value_measured = 3000


Kindly review the next binder as well.
// returns reported kon for input anti-EphB4 antibody clone 30.35.2D13 (antibody, V domains shown) VH: EVQLVESGGGLVQPGGSLRLSCAASGFTISGYYIHWVRQAPGKGLEWVGGIYLYSGSTDYADSVKGRFTISADTSKNTAYLQMNSLRAEDTAVYYCARGSGLRLGGLDYAMDYWGQGTLVTVSS VL: DIQMTQSPSSLSASVGDRVTITCRASQDVSTAVAWYQQKPGKAPKLLIYSASFLYSGVPSRFSGSGSGTDFTLTISSLQPEDFATYYCQQTAQTPETFGQGTKVEIK 45000
